Test: Half life in human liver microsomes
Assay type: ADME, Microsome
Measured half-life, listed per entry for reference.

{"MOLECULE": "N[C@H](Cc1ccc(F)cc1)c1nc2ccc(-c3cn[nH]c3)cc2c(=O)[nH]1", "half-life": "65 min"}
{"MOLECULE": "N[C@@H](Cc1ccc(F)cc1)c1nc2ccc(-c3cn[nH]c3)cc2c(=O)[nH]1", "half-life": "42 min"}
{"MOLECULE": "N[C@@H](Cc1ccc(Cl)cc1)c1nc2ccc(-c3cn[nH]c3)cc2c(=O)[nH]1", "half-life": "47 min"}
{"MOLECULE": "NC(c1cccc(Cl)c1)c1nc2ccc(-c3cn[nH]c3)cc2c(=O)[nH]1 (configuration not stated)", "half-life": "46 min"}
{"MOLECULE": "COc1cc(-c2cn[nH]c2)cc2c(=O)[nH]c(C(N)c3cccc(Cl)c3)nc12 (configuration not stated)", "half-life": "51 min"}
{"MOLECULE": "CN(C)c1nc([C@@H]2CNC[C@H]2c2ccccc2)nc2ccc(-c3cn[nH]c3)cc12", "half-life": "86 min"}
{"MOLECULE": "COc1ccc(C[C@H](N)c2nc3ccc(-c4cn[nH]c4)cc3c(=O)[nH]2)cc1", "half-life": "21 min"}
